# method description: Inhibition of Mycobacterium tuberculosis AlaDH using L-alanine as substrate after 20 mins by spectrophotometry
# study conditions: read-out: IC50
pIC50: −log10 of the molar value.
quantity measured: pIC50

* CC(C)(C)OC(=O)N1CCc2c(sc(NC(=O)c3ccc(OCc4ccccc4)cc3)c2C(N)=O)C1 | 6.19
* N=C1S/C(=C\c2ccc(OCc3ccccc3)cc2)C(=O)N1c1ncc([N+](=O)[O-])s1 | 5.17
* N=C1S/C(=C\c2ccc(OCc3ccccc3)cc2)C(=O)N1c1cccc([N+](=O)[O-])c1 | 5.25
* NC(=O)c1c(NC(=O)c2ccc(OCc3ccccc3)cc2)sc2c1CCN(Cc1ccccc1)C2 | 6.09
* Cc1cccc(C)c1N1C(=N)S/C(=C\c2ccc(OCc3ccccc3)cc2)C1=O | 5.76
